All figures here come from patent US10781215B2.

# Measured Target: human Tyk2 (amino acids 575-869, His-tagged) (Homo sapiens)
# Assay Comment: Probe displacement assay (SPA format)
# Condition Summary: radiolabeled probe 40 nM, Tyk2 2.5 nM
Measure Name: EC50

| Compound | Measured Target | Measured Result |
| --- | --- | --- |
| COc1c(Nc2cc(NC(=O)C3CC3)nc3[nH]c(C)nc23)cccc1-c1ncn(C)n1 [Example 39] | human Tyk2 (amino acids 575-869, His-tagged) (Homo sapiens) | 17 nM |
| Cc1cnc(Nc2cc(Nc3ccccc3S(C)(=O)=O)c3nc(C)[nH]c3n2)cn1 [Example 15] | human Tyk2 (amino acids 575-869, His-tagged) (Homo sapiens) | 31 nM |
| COc1ccc(Nc2cc(Nc3ccccc3S(C)(=O)=O)c3nc(C)[nH]c3n2)nc1 [Example 16] | human Tyk2 (amino acids 575-869, His-tagged) (Homo sapiens) | 14 nM |
| Cc1nc2c(Nc3ccccc3S(C)(=O)=O)cc(Nc3ccc(N4CCC(C)(O)CC4)cn3)nc2[nH]1 [Example 9] | human Tyk2 (amino acids 575-869, His-tagged) (Homo sapiens) | 17 nM |
| Cc1nc2c(Nc3ccccc3S(C)(=O)=O)cc(Nc3ccc(N4CCCC4=O)cn3)nc2[nH]1 [Example 24] | human Tyk2 (amino acids 575-869, His-tagged) (Homo sapiens) | 15 nM |
| Cc1nc2c(Nc3ccccc3C(N)=O)cc(Nc3ccc(F)cn3)nc2[nH]1 [Example 32] | human Tyk2 (amino acids 575-869, His-tagged) (Homo sapiens) | 167 nM |
| Cc1cc(Nc2cc(Nc3ccccc3S(C)(=O)=O)c3nc(C)[nH]c3n2)nc(C)n1 [Example 4] | human Tyk2 (amino acids 575-869, His-tagged) (Homo sapiens) | 12 nM |
| Cc1nc2c(Nc3ccccc3S(C)(=O)=O)cc(Nc3ccc(C#N)cn3)nc2[nH]1 [Example 13] | human Tyk2 (amino acids 575-869, His-tagged) (Homo sapiens) | 9 nM |

====

# Measured Target: recombinant human His-tagged Tyk2 pseudokinase domain (His-TVMV-Tyk2, 575-869) (Homo sapiens)
# Sequence (P29597 with tags, fused parts or gaps): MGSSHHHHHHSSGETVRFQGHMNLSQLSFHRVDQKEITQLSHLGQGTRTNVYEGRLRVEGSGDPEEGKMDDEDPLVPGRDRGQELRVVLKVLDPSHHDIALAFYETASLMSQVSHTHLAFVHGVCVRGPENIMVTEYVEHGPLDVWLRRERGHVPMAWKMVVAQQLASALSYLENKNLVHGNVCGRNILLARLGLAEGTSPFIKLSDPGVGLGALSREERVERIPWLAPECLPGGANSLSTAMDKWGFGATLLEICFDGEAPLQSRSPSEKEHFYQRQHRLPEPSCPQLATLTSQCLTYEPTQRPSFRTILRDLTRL
# Assay Comment: Probe displacement assay (HTRF format)
# Condition Summary: fluorescein labeled probe, Tyk2 pseudokinase domain 0.5 nM

| Structure Notation | EC50 [nM] |
| --- | --- |
| Cc1nc2c(Nc3ncccc3S(C)(=O)=O)cc(Nc3ccc(N4CCOCC4)cn3)nc2[nH]1 | 1.1 |
| Cc1nc2c(Nc3ncccc3S(C)(=O)=O)cc(Nc3cc(F)ccn3)nc2[nH]1 | 0.8 |
| Cc1cnc(Nc2cc(Nc3ncccc3S(C)(=O)=O)c3nc(C)[nH]c3n2)cn1 | 0.6 |

====

# Test system: IL-23 stimulated Kit225 T cells (STAT-dependent luciferase reporter)
# Assay Comment: Kit225 T cell assay, IL-23 stimulated STAT-dependent luciferase reporter
# Assay type: cell-based
# Condition Summary: 20 ng/mL human recombinant IL-23, 5-6 hours
Measured IC50, listed per entry for reference.

| Structure Notation | IC50 |
| --- | --- |
| Cc1nc2c(Nc3ccccc3S(C)(=O)=O)cc(Nc3cc(C)n(C)n3)nc2[nH]1 | 140 nM |
| Cc1nc2c(Nc3ncccc3S(C)(=O)=O)cc(Nc3ccc(N4CCOCC4)cn3)nc2[nH]1 | 367 nM |
| Cc1nc2c(Nc3ccccc3S(C)(=O)=O)cc(Nc3ccc(C(F)(F)F)cn3)nc2[nH]1 | 143 nM |
| Cc1nc2c(Nc3ccccc3C(N)=O)cc(Nc3ccc(F)cn3)nc2[nH]1 | 3310 nM |
| COc1ccccc1Nc1cc(NC(=O)C2CC2)nc2[nH]c(C)nc12 | 3140 nM |
| Cc1nc2c(Nc3ccccc3S(C)(=O)=O)cc(Nc3ccc(N4CCC(C)(O)CC4)cn3)nc2[nH]1 | 854 nM |
| Cc1nc2c(Nc3ccccc3S(C)(=O)=O)cc(NC(=O)C3CC3)nc2[nH]1 | 718 nM |
| Cc1nc2c(Nc3ncccc3S(C)(=O)=O)cc(NC(=O)C3CC3)nc2[nH]1 | 698 nM |
| Cc1nc2c(Nc3ccccc3C(N)=O)cc(Nc3ccc(N4CCOCC4)cn3)nc2[nH]1 | 4380 nM |
| Cc1cc(Nc2cc(Nc3ccccc3C(N)=O)c3nc(C)[nH]c3n2)nc(C)n1 | 1960 nM |
| Cc1cccc(Nc2cc(Nc3ncccc3S(C)(=O)=O)c3nc(C)[nH]c3n2)n1 | 107 nM |
| CCc1nc2c(Nc3ccccc3S(C)(=O)=O)cc(Nc3cc(C)nc(C)n3)nc2[nH]1 | 1410 nM |
| CCc1nc2c(Nc3ccccc3S(C)(=O)=O)cc(Nc3ccc(F)cn3)nc2[nH]1 | 1470 nM |

====

Listed compounds paired with reported pIC50
# System: IL-23 stimulated Kit225 T cells (STAT-dependent luciferase reporter)
# Assay Comment: Kit225 T cell assay, IL-23 stimulated STAT-dependent luciferase reporter
# Format: cell-based
# Condition Summary: 20 ng/mL human recombinant IL-23, 5-6 hours
pIC50: −log10 of the molar value.

| Structure Notation | pIC50 |
| --- | --- |
| Cc1nc2c(Nc3ccccc3S(C)(=O)=O)cc(Nc3cc(C#N)ccn3)nc2[nH]1 | 6.56 |
| Cc1cnc(Nc2cc(Nc3ncccc3S(C)(=O)=O)c3nc(C)[nH]c3n2)cn1 | 6.13 |
| Cc1nc2c(Nc3ccccc3S(C)(=O)=O)cc(Nc3ccc(N4CCOCC4)cn3)nc2[nH]1 | 6.72 |
| COc1ccccc1Nc1cc(Nc2ccc(F)cn2)nc2[nH]c(C)nc12 | 5.09 |
| COc1ccccc1Nc1cc(Nc2ccc(N3CCOCC3)cn2)nc2[nH]c(C)nc12 | 5.41 |
| Cc1nc2c(Nc3ccccc3S(C)(=O)=O)cc(Nc3cc(F)ccn3)nc2[nH]1 | 6.98 |
| Cc1nc2c(Nc3ncccc3S(C)(=O)=O)cc(Nc3cc(F)ccn3)nc2[nH]1 | 7.28 |
| Cc1ccnc(Nc2cc(Nc3ccccc3S(C)(=O)=O)c3nc(C)[nH]c3n2)c1 | 6.39 |
| COc1cnc(Nc2cc(Nc3ccccc3S(C)(=O)=O)c3nc(C)[nH]c3n2)cn1 | 6.35 |
| Cc1ccc(Nc2cc(Nc3ccccc3S(C)(=O)=O)c3nc(C)[nH]c3n2)nn1 | 6.06 |
| Cc1nc2c(Nc3ccccc3S(C)(=O)=O)cc(Nc3ccc(F)cn3)nc2[nH]1 | 6.79 |
| COc1c(Nc2cc(Nc3ccc(F)cn3)nc3[nH]c(C)nc23)cccc1-c1ncn(C)n1 | 6.13 |
| COc1ccc(Nc2cc(Nc3ncccc3S(C)(=O)=O)c3nc(C)[nH]c3n2)nn1 | 6.34 |
| Cc1nc2c(Nc3ccccc3S(C)(=O)=O)cc(Nc3ccc(C#N)cn3)nc2[nH]1 | 6.73 |
| Cc1nc2c(Nc3ccccc3S(C)(=O)=O)cc(Nc3ccc(N4CCCC4=O)cn3)nc2[nH]1 | 5.91 |
